Target: Peroxisome proliferator-activated receptor alpha (Homo sapiens, UniProt Q07869)
Sequence (Q07869 whole entry, the tested form may be a part): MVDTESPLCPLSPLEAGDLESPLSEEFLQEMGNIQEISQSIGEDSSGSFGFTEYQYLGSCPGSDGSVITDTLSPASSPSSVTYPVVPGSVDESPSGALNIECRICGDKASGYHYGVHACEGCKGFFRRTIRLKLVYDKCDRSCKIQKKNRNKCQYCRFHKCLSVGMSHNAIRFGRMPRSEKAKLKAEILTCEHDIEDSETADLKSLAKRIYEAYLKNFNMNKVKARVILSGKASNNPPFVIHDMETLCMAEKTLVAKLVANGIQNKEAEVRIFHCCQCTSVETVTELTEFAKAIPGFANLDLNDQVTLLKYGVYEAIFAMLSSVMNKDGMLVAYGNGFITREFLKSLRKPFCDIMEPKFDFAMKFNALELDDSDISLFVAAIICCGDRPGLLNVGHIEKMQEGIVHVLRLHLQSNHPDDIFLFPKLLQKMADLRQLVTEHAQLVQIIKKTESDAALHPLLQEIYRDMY
Experiment: Agonist activity at GAL4 tagged human PPARalpha ligand binding domain expressed in HEK293 cells by luciferase reporter gene assay
Type: cell-based
Conditions: read-out: EC50
# Y = EC50 below 200 nM (exclusive); N = EC50 at/above 200 nM

[in] Determine whether this molecule shows EC50 lower than 200 nM (ties excluded): Cc1oc(-c2ccccc2)nc1CCOc1ccc(C[C@H]2CN(c3nccc(C(F)(F)F)n3)C[C@H]2C(=O)O)cc1
[out] N

[in] Determine whether this molecule shows EC50 lower than 200 nM (ties excluded): Cc1oc(-c2ccccc2)nc1CCOc1cccc(CC[C@@H]2CN(C(=O)Oc3ccccc3)C[C@@H]2C(=O)O)c1 (racemic)
[out] Y

[in] Determine whether this molecule shows EC50 lower than 200 nM (ties excluded): Cc1oc(-c2ccccc2)nc1CCOc1ccc(CC[C@H]2CN(C(=O)Oc3ccccc3)C[C@@H]2C(=O)O)cc1 (racemic)
[out] N

[in] Determine whether this molecule shows EC50 lower than 200 nM (ties excluded): Cc1oc(-c2ccccc2)nc1CCOc1cccc([C@@H]2CN(C(=O)Oc3ccccc3)C[C@@H]2CC(=O)O)c1 (racemic)
[out] N

[in] Determine whether this molecule shows EC50 lower than 200 nM (ties excluded): Cc1oc(-c2ccccc2)nc1CCOc1cccc(CC[C@H]2CN(C(=O)Oc3ccccc3)C[C@@H]2C(=O)O)c1 (racemic)
[out] N

[in] Determine whether this molecule shows EC50 lower than 200 nM (ties excluded): Cc1oc(-c2ccccc2)nc1CCOc1ccc(C[C@@H]2CN(c3nc(C(F)(F)F)co3)C[C@@H]2C(=O)O)cc1 (racemic)
[out] N

[in] Determine whether this molecule shows EC50 lower than 200 nM (ties excluded): Cc1oc(-c2ccccc2)nc1CCOc1cccc([C@H]2CN(C(=O)Oc3ccccc3)C[C@@H]2CC(=O)O)c1 (racemic)
[out] N

[in] Determine whether this molecule shows EC50 lower than 200 nM (ties excluded): CCOC(=O)N1C[C@H](Cc2cccc(OCCc3nc(-c4ccccc4)oc3C)c2)[C@@H](C(=O)O)C1 (racemic)
[out] Y

[in] Determine whether this molecule shows EC50 lower than 200 nM (ties excluded): Cc1oc(-c2ccccc2)nc1CCOc1cccc([C@@H]2CN(C(=O)Oc3ccccc3)C[C@@H]2C(=O)O)c1 (racemic)
[out] N

[in] Determine whether this molecule shows EC50 lower than 200 nM (ties excluded): Cc1oc(-c2ccccc2)nc1CCOc1cccc(C[C@H]2CN(C(=O)Oc3ccccc3)C[C@H]2C(=O)O)c1
[out] N

[in] Determine whether this molecule shows EC50 lower than 200 nM (ties excluded): CCOC(=O)N1C[C@H](C(=O)O)[C@H](c2ccc(OCCc3nc(-c4ccccc4)oc3C)cc2)C1 (racemic)
[out] N

[in] Determine whether this molecule shows EC50 lower than 200 nM (ties excluded): Cc1oc(-c2ccccc2)nc1CCOc1cccc(C[C@H]2CN(c3nccc(C(F)(F)F)n3)C[C@H]2C(=O)O)c1
[out] N

[in] Determine whether this molecule shows EC50 lower than 200 nM (ties excluded): CCOC(=O)N1C[C@@H](CCc2ccc(OCCc3nc(-c4ccccc4)oc3C)cc2)[C@@H](C(=O)O)C1 (racemic)
[out] Y

[in] Determine whether this molecule shows EC50 lower than 200 nM (ties excluded): Cc1oc(-c2ccccc2)nc1CCOc1ccc(C[C@@H]2CN(C(=O)Oc3ccccc3)C[C@@H]2C(=O)O)cc1
[out] Y

[in] Determine whether this molecule shows EC50 lower than 200 nM (ties excluded): Cc1oc(-c2ccccc2)nc1CCOc1cccc(C[C@H]2CN(C(=O)Oc3ccccc3)C[C@@H]2CC(=O)O)c1 (racemic)
[out] N

[in] Determine whether this molecule shows EC50 lower than 200 nM (ties excluded): Cc1oc(-c2ccccc2)nc1CCOc1ccc([C@H]2CN(C(=O)Oc3ccccc3)C[C@@H]2C(=O)O)cc1 (racemic)
[out] N

[in] Determine whether this molecule shows EC50 lower than 200 nM (ties excluded): Cc1oc(-c2ccccc2)nc1CCOc1cccc(C[C@@H]2CN(c3ccccc3)C[C@@H]2C(=O)O)c1
[out] Y

[in] Determine whether this molecule shows EC50 lower than 200 nM (ties excluded): Cc1oc(-c2ccccc2)nc1CCOc1cccc(C[C@H]2CN(c3ccccc3)C[C@H]2C(=O)O)c1
[out] N

[in] Determine whether this molecule shows EC50 lower than 200 nM (ties excluded): Cc1oc(-c2ccccc2)nc1CCOc1ccc(C[C@@H]2CN(c3nccc(C(F)(F)F)n3)C[C@@H]2C(=O)O)cc1 (racemic)
[out] Y

[in] Determine whether this molecule shows EC50 lower than 200 nM (ties excluded): CCOC(=O)N1C[C@H](CCc2ccc(OCCc3nc(-c4ccccc4)oc3C)cc2)[C@@H](C(=O)O)C1 (racemic)
[out] Y

[in] Determine whether this molecule shows EC50 lower than 200 nM (ties excluded): Cc1oc(-c2ccccc2)nc1CCOc1ccc(C[C@@H]2CN(c3nccc(C(F)(F)F)n3)C[C@H]2C(=O)O)cc1
[out] N

[in] Determine whether this molecule shows EC50 lower than 200 nM (ties excluded): Cc1oc(-c2ccccc2)nc1CCOc1cccc(C[C@@H]2CN(c3ccccc3)C[C@@H]2C(=O)O)c1 (racemic)
[out] Y
